Test system: P. aeruginosa (PA)
test-method-notes: MIC by microdilution, 36 clinical and laboratory strains with known efflux phenotype
Assay type: cell-based
applied-conditions: strain 397, efflux AB−, MHB
Experimental: MICs of 36 clinical and laboratory strains of PA with known efflux phenotype are measured by microdilution in cation-adjusted Muller-Hinton broth (CA-MHB) or in RPMI medium (commonly used in eukaryotic cell culture). […] MICs are measured by microdilution in MH broth or in RPMI medium (used for eukaryotic cells culture) supplemented with 10% of fetal calf serum, or in MH broth supplemented by increasing amounts of serum. […]
readout-type: MIC (µg/mL)
# output: bare number, implied unit µg/mL

Past entries and their recorded results:
molecule	unit-abbrev	MIC
CC[C@H]1OC(=O)[C@H](C)[C@@H](O[C@H]2C[C@@](C)(OC)[C@@H](O)[C@H](C)O2)[C@H](C)[C@@H](O[C@@H]2O[C@H](C)C[C@H](N(C)C)[C@H]2O)[C@](C)(OC)C[C@@H](C)C(=O)[C@H](C)[C@@H](O)[C@]1(C)O [CLR, clarithromycin]	µg/mL	16
CC[C@H]1OC(=O)[C@H](C)[C@@H](O[C@H]2C[C@@](C)(OC)[C@@H](O)[C@H](C)O2)[C@H](C)[C@@H](O[C@@H]2O[C@H](C)C[C@H](N(C)C)[C@H]2O)[C@](C)(O)C[C@@H](C)C(=O)[C@H](C)[C@@H](O)[C@]1(C)O [ERY, erythromycin]	µg/mL	16

Now consider a different molecule.
Measured MIC of CC[C@H]1OC(=O)[C@@](C)(F)C(=O)[C@H](C)[C@@H](O[C@@H]2O[C@H](C)C[C@H](N(C)C)[C@H]2O)[C@](C)(OC)C[C@@H](C)C(=O)[C@H](C)[C@H]2N(CCCCn3cc(-c4cccc(N)c4)nn3)C(=O)O[C@]12C [CEM-101, solithromycin] : 2

---

Test system: P. aeruginosa (PA)
test-method-notes: MIC by microdilution, 36 clinical and laboratory strains with known efflux phenotype
Type: cell-based
applied-conditions: strain 63, efflux AB + EF + XY+, MHB
Protocol: MICs of 36 clinical and laboratory strains of PA with known efflux phenotype are measured by microdilution in cation-adjusted Muller-Hinton broth (CA-MHB) or in RPMI medium (commonly used in eukaryotic cell culture). […] MICs are measured by microdilution in MH broth or in RPMI medium (used for eukaryotic cells culture) supplemented with 10% of fetal calf serum, or in MH broth supplemented by increasing amounts of serum. […]
readout-type: MIC (µg/mL)
Expressed in µg/mL, but write only the number.

line-notation	MIC, µg/mL
CC[C@H]1OC(=O)[C@H](C)[C@@H](O[C@H]2C[C@@](C)(OC)[C@@H](O)[C@H](C)O2)[C@H](C)[C@@H](O[C@@H]2O[C@H](C)C[C@H](N(C)C)[C@H]2O)[C@](C)(OC)C[C@@H](C)C(=O)[C@H](C)[C@@H](O)[C@]1(C)O	512
CC[C@H]1OC(=O)[C@H](C)[C@@H](O[C@H]2C[C@@](C)(OC)[C@@H](O)[C@H](C)O2)[C@H](C)[C@@H](O[C@@H]2O[C@H](C)C[C@H](N(C)C)[C@H]2O)[C@](C)(O)C[C@@H](C)C(=O)[C@H](C)[C@@H](O)[C@]1(C)O	512
CC[C@H]1OC(=O)[C@@](C)(F)C(=O)[C@H](C)[C@@H](O[C@@H]2O[C@H](C)C[C@H](N(C)C)[C@H]2O)[C@](C)(OC)C[C@@H](C)C(=O)[C@H](C)[C@H]2N(CCCCn3cc(-c4cccc(N)c4)nn3)C(=O)O[C@]12C	64
CC[C@H]1OC(=O)[C@H](C)[C@@H](O[C@H]2C[C@@](C)(OC)[C@@H](O)[C@H](C)O2)[C@H](C)[C@@H](O[C@@H]2O[C@H](C)C[C@H](N(C)C)[C@H]2O)[C@](C)(O)C[C@@H](C)CN(C)[C@H](C)[C@@H](O)[C@]1(C)O	256

The value of MIC recorded for CC[C@H]1OC(=O)[C@H](C)C(=O)[C@H](C)[C@@H](O[C@@H]2O[C@H](C)C[C@H](N(C)C)[C@H]2O)[C@](C)(OC)C[C@@H](C)C(=O)[C@H](C)[C@H]2N(CCCCn3cnc(-c4cccnc4)c3)C(=O)O[C@]12C when tested on P. aeruginosa (PA) reads 128
